Reported growth is given for each of the following molecules.
- Test system: SN12C renal
- protocol summary: NCI-60 one-dose screen, 48 h (100 = growth as untreated, 0 = no growth, -100 = all killed)
- condition: 10 µM unless noted
The panel holds about 83,000 compounds, 20% with a hit somewhere; the sample as a whole holds those more often. Active and inactive are the calls of the source. Rule for the calls: active = growth percent below 10; inactive = the rest.

>  <molecule>
O=C(CCCCCCNC(=O)C(O)(O)C(F)(F)F)Nc1ccc(-c2ccccc2)cc1

>  <growth>
14.6% (inactive)

$$$$
>  <molecule>
CC1=Cc2ccccc2OC12C=Cc1ccccc1O2 (stereo not drawn)

>  <growth>
102% (inactive)

$$$$
>  <molecule>
N#C/C(=C\c1cccc2c1OCO2)C(=O)Nc1sc2c(c1C#N)CCCC2

>  <growth>
98.3% (inactive)

$$$$
>  <molecule>
CNC(=O)c1cc(N2CCc3cc(NC(=O)Nc4ccc(N5CCOCC5)c(C(F)(F)F)c4)ccc32)ccn1

>  <growth>
15% (inactive)

$$$$
>  <molecule>
O=c1oc2ccc(-c3ccc(F)cc3F)cc2c(=O)n1-c1ccc(Br)cc1F

>  <growth>
46.2% (inactive)

$$$$
>  <molecule>
COc1ccc(/C=N/N=C(/c2ccccc2)c2ccc3nc(-c4ccc(Cl)cc4)[nH]c3c2)cc1

>  <growth>
85.4% (inactive)

$$$$
>  <molecule>
COc1ccc(-c2nc(C#N)c(N3CCC(S(=O)(=O)N4CCOCC4)CC3)o2)cc1

>  <growth>
99.5% (inactive)

$$$$
>  <molecule>
CCOC(=O)c1cccc(NC2=C(Cl)C(=O)C(C)=C(C)C2=O)c1

>  <growth>
94.8% (inactive)

$$$$
>  <molecule>
CSc1ccc(/C(=N/N=C(N)N)c2ccc(F)cc2)cc1

>  <growth>
36.9% (inactive)

$$$$
>  <molecule>
O=C(N/N=C\c1ccc(F)cc1)c1ccc2nc(-c3ccc(Br)cc3)[nH]c2c1

>  <growth>
29.4% (inactive)

$$$$
>  <molecule>
CCOC(=O)c1c(NC(=O)c2cccc(C(F)(F)F)c2)sc2c1CCC(=O)C2

>  <growth>
42.9% (inactive)

$$$$
>  <molecule>
C=C(C=O)[C@@H]1CC[C@]2(C(=O)O)CC[C@]3(C)C(CC[C@@H]4[C@@](C)(CCC#N)[C@H](C(=C)C=O)CC[C@]43C)[C@@H]12 (stereo partly drawn)

>  <growth>
66.4% (inactive)

$$$$
>  <molecule>
C#Cc1cc(C(=O)Nc2ccc(CNCCN3CCOCC3)c(C(F)(F)F)c2)ccc1C

>  <growth>
93.5% (inactive)

$$$$
>  <molecule>
CCOC(=O)c1c(NC(=O)c2ccc(C(F)(F)F)cc2)sc2c(CN3CCN(C)CC3)c(O)ccc12

>  <growth>
-75.7% (active)

$$$$
>  <molecule>
C[C@]12CC[C@H]3[C@@H](CC=C4C[C@@H](O)CC[C@@]43C)[C@@H]1CC[C@@H]2[C@](C)(O)CCc1cccnc1

>  <growth>
79.9% (inactive)

$$$$
>  <molecule>
O=S(=O)(NCCCNc1nccc(-c2[nH]c(-c3ccccc3)nc2-c2ccc(F)c(O)c2)n1)c1ccc(C(F)(F)F)cc1

>  <growth>
67.7% (inactive)

$$$$
>  <molecule>
CNC(=O)c1cc(-n2ccc3cc(NC(=O)Nc4ccc(N5CCN(C)CC5)c(C(F)(F)F)c4)ccc32)ccn1

>  <growth>
94.6% (inactive)

$$$$
>  <molecule>
CC(C)NC(=O)c1cc(-c2ccc(NC(=O)Nc3ccc(F)c(C(F)(F)F)c3)cc2)nc2cccnc12

>  <growth>
98.4% (inactive)

$$$$

###

- Test system: LOX IMVI melanoma
- protocol summary: NCI-60 one-dose screen, 48 h
- condition: 10 µM unless noted
- Experimental: Growth inhibition of the LOX IMVI human tumor cell line is measured as a screen for anti-cancer activity. Cells are grown in 96 well plates and exposed to the test compound for 48 hours. Compounds are tested at a single concentration, which is 10^-5 M for most compounds. The reported endpoint is percent growth (GI% or GIPRCNT), where numbers from 0 - 100% represent growth inhibition, and numbers from -100% - 0 represent cell death. For example, a value of 40 represents 60% growth inhibition. […]
Compounds without any hit were thinned out: in the full panel of roughly 83,000, 20% have a hit. Active and inactive are the calls of the source. Rule for the calls: active = growth percent below 10; inactive = the rest.
Classes used: 1 for active, 0 for inactive

>  <item smiles>
CCCCCCOC(=O)c1cc(-c2ccc(F)cc2)nc2ccccc12

>  <cat>
0

$$$$
>  <item smiles>
CC(C)=CCC[C@](C)(O)[C@H]1CC[C@]2(C)[C@@H]1CC[C@@H]1[C@@]3(C)CC[C@H](N)C(C)(C)[C@@H]3CC[C@]12C

>  <cat>
1

$$$$
>  <item smiles>
Cc1[nH]c(C(=O)Nc2ccccc2OCc2cccc(C(=O)NCCN)c2)cc1Cl

>  <cat>
0

$$$$
>  <item smiles>
CN(C)S(=O)(=O)c1ccc(-c2nc(C(Cl)Cl)nc3cc(-c4ccccc4)nn23)cc1

>  <cat>
0

$$$$
>  <item smiles>
C#Cc1nc(/C=C/CCCCCCC(=O)NO)cs1

>  <cat>
1

$$$$
>  <item smiles>
CCOC(=O)c1c(NC(=O)c2ccc(C(F)(F)F)cc2)sc2c3c(ccc12)OCN(C)C3

>  <cat>
1

$$$$
>  <item smiles>
COc1ccc(-c2c(C(N)=O)c(N)n(Cc3nc4ccccc4[nH]3)c(=O)c2C#N)c(OC)c1

>  <cat>
0

$$$$
>  <item smiles>
CN(C)S(=O)(=O)c1ccc(-c2nc(C(Cl)Cl)nc3cc(-c4ccc(F)cc4)nn23)cc1

>  <cat>
1

$$$$
>  <item smiles>
COc1ccc(OC)c(NC(=O)CCCCCCNC(=O)C(O)(O)C(F)(F)F)c1

>  <cat>
0

$$$$
>  <item smiles>
O=C1Nc2ccc(F)cc2/C1=C\C(=O)c1ccc(NS(=O)(=O)c2ccccc2)cc1

>  <cat>
0

$$$$

###

- Tested on: SNB-75 CNS
- protocol summary: NCI-60 one-dose screen, 48 h (100 = growth as untreated, 0 = no growth, -100 = all killed)
- condition: 10 µM unless noted
Compounds without any hit were thinned out: in the full panel of roughly 83,000, 20% have a hit.

>  <compound>
C/C(=N\NC(=O)Nc1ccccc1)c1nnn(-c2ccc([N+](=O)[O-])cc2)c1C

>  <growth [%]>
100

$$$$
>  <compound>
C#C[C@]1(O)CC[C@H]2[C@@H]3CC=C4c5sc(N(C)c6ccccc6)nc5CC[C@]4(C)[C@H]3CC[C@@]21C

>  <growth [%]>
99.8

$$$$
>  <compound>
O=C1C(N2CCN(c3ccccc3)CC2)=C(Cl)C(=O)c2ncccc21

>  <growth [%]>
83.7

$$$$
>  <compound>
O=S1SC(c2ccccc2)=NN1c1cc(F)cc(F)c1 (stereo not drawn)

>  <growth [%]>
74.9

$$$$
>  <compound>
C=C(C)[C@@H]1CC[C@]2(COP(=O)(OCC)OCC)CC[C@]3(C)[C@H](CC[C@@H]4[C@@]5(C)CC[C@H](OP(=O)(OCC)OCC)C(C)(C)[C@@H]5CC[C@]43C)[C@@H]12

>  <growth [%]>
75.3

$$$$
>  <compound>
CS(=O)(=O)c1nccc(-c2c(-c3cccc(OCc4ccc(Cl)c(C(F)(F)F)c4)c3)nc3sccn23)n1

>  <growth [%]>
108

$$$$
>  <compound>
O=C(CSc1nc2ccccc2c(=O)n1-c1ccc(S(=O)(=O)Nc2ccc(Cl)nn2)cc1)Nc1ccc(S(=O)(=O)Nc2ccc(Cl)nn2)cc1

>  <growth [%]>
96.1

$$$$
>  <compound>
CC1(C)C=Cc2cc(/C(N)=N/C(N)=N/c3nc4ccccc4s3)ccc2O1

>  <growth [%]>
101

$$$$

###

- Test system: NCI-H522 lung
- protocol summary: NCI-60 one-dose screen, 48 h (100 = growth as untreated, 0 = no growth, -100 = all killed)
- condition: 10 µM unless noted
Compounds without any hit were thinned out: in the full panel of roughly 83,000, 20% have a hit.
growth strictly less than 80% = Met. Otherwise Not met.

>  <compound>
COC(=O)c1cccc(NC2=CC(=O)C(C)=C(C)C2=O)c1

>  <cat>
Not met

$$$$
>  <compound>
CC(=O)Nc1ccccc1-c1nc2ccccc2s1

>  <cat>
Not met

$$$$
>  <compound>
N#CC1=C2NCCCNc3oc(nc3C#N)Cc3ccccc3CC(=N1)O2

>  <cat>
Not met

$$$$
>  <compound>
Brc1cccc(-c2cc(-c3cnc4c(c3)OCCO4)n[nH]2)c1

>  <cat>
Met

$$$$
>  <compound>
CC(=C(c1ccc(OCCN(C)C)cc1)c1ccc(OCCN(C)C)cc1)c1ccc(Cl)cc1

>  <cat>
Met

$$$$
>  <compound>
COc1ccc2sc(NC(=O)CCCCCCNC(=O)C(O)(O)C(F)(F)F)nc2c1

>  <cat>
Met

$$$$
>  <compound>
CC(=O)N(O)CCCCCNC(=O)CCC(=O)N(O)CCCCCNC(=O)CCC(=O)N(O)CCCCCN(CCCCCCCCCC[P+](c1ccccc1)(c1ccccc1)c1ccccc1)CCCCCCCCCC[P+](c1ccccc1)(c1ccccc1)c1ccccc1

>  <cat>
Met

$$$$
>  <compound>
COc1ccc(C(C)=C(c2ccc(OCCN3CCCCCC3)cc2)c2ccc(OCCN3CCCCCC3)cc2)cc1

>  <cat>
Met

$$$$
>  <compound>
CC(=O)/C(N=Nc1ccc2oc(=O)ccc2c1)=C(\C)O

>  <cat>
Met

$$$$
>  <compound>
O=C(CCCCCCNC(=O)C(O)(O)C(F)(F)F)Nc1ncc(-c2ccc(Br)cc2)s1

>  <cat>
Met

$$$$
>  <compound>
O=C(CSc1nc2ccccc2c(=O)n1-c1ccccc1)N/N=C/c1ccc(Oc2ccc(Br)cc2)cc1

>  <cat>
Met

$$$$
>  <compound>
CC(C)(C)c1cc(NC(=O)Nc2ccc(-c3cn4c5c(sc4n3)CCc3c[nH]cc3-5)cc2)no1

>  <cat>
Met

$$$$
>  <compound>
C#Cc1cc(C(=O)Nc2ccc(CNCCN3CCOCC3)c(C(F)(F)F)c2)ccc1C

>  <cat>
Not met

$$$$
>  <compound>
O=C(/C=C/c1ccccc1)c1cccc(O)c1

>  <cat>
Not met

$$$$
>  <compound>
CC1(C)CC[C@]2(C(=O)O)CC[C@]3(C)C(=CC[C@@H]4[C@@]5(C)CC[C@H](NOCCCN)C(C)(C)[C@@H]5CC[C@]43C)[C@@H]2C1

>  <cat>
Not met

$$$$
>  <compound>
O=C(CCCCCCNC(=O)c1csc(Br)n1)NO

>  <cat>
Met

$$$$
>  <compound>
CCOC(=O)c1cccnc1Nc1ccc(NC(=O)Nc2ccc(Cl)c(C(F)(F)F)c2)cc1

>  <cat>
Met

$$$$
>  <compound>
CSc1ccc(/C(=N/N=C(N)N)c2ccc(Cl)cc2)cc1

>  <cat>
Met

$$$$
>  <compound>
O=C1c2ccccc2C23C(=C(c4cncnc4)c4ccccc42)CCCN13 (stereo not drawn)

>  <cat>
Not met

$$$$
>  <compound>
CCOC(=O)C1=C(C)NC(C)=C(C(=O)OC(C)C)C1c1cccc(C#N)c1 (stereo not drawn)

>  <cat>
Not met

$$$$
>  <compound>
O=C(CN1CCN(c2cc(=O)[nH]c3ccc(F)cc23)CC1)N(c1ccccc1)c1ccccc1

>  <cat>
Not met

$$$$
>  <compound>
O=C(CSc1nc2ccccc2c(=O)n1CCc1ccccc1)Nc1ccc(S(=O)(=O)Nc2ccc(Cl)nn2)cc1

>  <cat>
Not met

$$$$
>  <compound>
CCCC[n+]1ccc(SCC(=O)n2ccc3ccccc32)c2ccccc21

>  <cat>
Not met

$$$$
>  <compound>
N#C/C(=C\c1ccc(-c2ccc(Cl)cc2)o1)C(=O)Nc1ncc(Cc2ccc(Br)cc2)s1

>  <cat>
Met

$$$$
>  <compound>
COc1ccc(-c2cc(-c3ccc(N(C)C)cc3)n3c(n2)nc2ccccc23)cc1

>  <cat>
Met

$$$$
>  <compound>
CNC(=O)Nc1ccc(Nc2cc(-c3ccc(-n4cccn4)cc3)[nH]n2)c(C)c1

>  <cat>
Not met

$$$$
>  <compound>
C#CCOc1ccc(-c2csc(NC(=O)C=C)n2)cc1NS(=O)(=O)c1cccc2c(N(C)C)cccc12

>  <cat>
Met

$$$$
>  <compound>
CCCCCCOC(=O)c1cc(-c2ccc(F)cc2)nc2ccccc12

>  <cat>
Not met

$$$$
>  <compound>
Cc1ccc2c(n1)C(=O)C(Cl)=C(Nc1cc(C(F)(F)F)cc(C(F)(F)F)c1)C2=O

>  <cat>
Met

$$$$
>  <compound>
CCCCSC1=C(Cl)CN(c2ccccc2)C1=O

>  <cat>
Met

$$$$
>  <compound>
Cc1nc(/N=C(N)/N=C(\N)c2cccc(Br)c2)sc1C

>  <cat>
Met

$$$$
>  <compound>
CC[C@]12CC(C(=O)OC)=C3Nc4ccccc4[C@@]34CCN(C14)[C@@H]1c3cc4c(cc3O[C@@H]1[C@H]2O)NC1=C(C(=O)OC)C[C@@]2(CC)C3N(CC[C@@]143)C[C@H]1O[C@H]12 (stereo partly drawn)

>  <cat>
Met

$$$$
>  <compound>
CCCCOc1ccc(S(=O)(=O)N2CCN(c3nc(C)cc(N4CCOCC4)n3)CC2)cc1

>  <cat>
Not met

$$$$
>  <compound>
CCCc1cc2cc(-n3nc(CC)c4c3CC(C)(C)CC4=O)cc(NC3CCC(O)CC3)c2c(=O)[nH]1 (stereo not drawn)

>  <cat>
Met

$$$$
>  <compound>
CCOC(=O)c1ccccc1NC1=C(Cl)C(=O)c2nc(C)ccc2C1=O

>  <cat>
Not met

$$$$
>  <compound>
COc1ccc([C@@H]2C(=O)N(c3cc(OC)c(OC)c(OC)c3)[C@H]2c2ccc(OC)c(O)c2)cc1

>  <cat>
Met

$$$$
